- System: RXF 393
- protocol-notes: NCI tumour cell line growth inhibition, 48 h
Calls of active or inactive are those of the source. No stated cut-off is given here; in the data, active = GI50 up to about 1.1 µM and inactive = higher.
Outcomes: YES = active, NO = inactive

compound	tested-system	label
CC1=NN(C(=O)CC(=O)Nc2ccccc2)C(=O)C1/N=N/c1ccc(C(=O)O)cc1 (stereo not given)	RXF 393	NO
C[C@@]12C[C@@H](c3ccccc3O1)N1CCSC1=N2	RXF 393	NO
O=C(C=P(c1ccccc1)(c1ccccc1)c1ccccc1)c1ccccc1-c1ccccc1C(=O)C=P(c1ccccc1)(c1ccccc1)c1ccccc1	RXF 393	YES
Nc1ccc(-c2nc3cc(F)ccc3s2)cc1Cl	RXF 393	NO
CC(=O)NNc1nc(C)c(C(=O)NNC(=O)C(=O)Nc2c(C)cccc2C)s1	RXF 393	NO
CCOC(=O)C1=C(C)N2CCCOC2(C)C(C(=O)OC)C1c1cccc([N+](=O)[O-])c1 (stereo not given)	RXF 393	NO
O=c1oc2nc(-c3ccccc3)cc(C(F)(F)F)c2n1Cc1ccccc1	RXF 393	NO
Cc1ccc(S(=O)(=O)NC(=N)N(C)N=O)cc1	RXF 393	NO
O=C(Nc1ccccc1)c1nn(-c2cc(S(=O)(=O)O)c([N+](=O)[O-])cc2Cl)[n+](-c2cc(S(=O)(=O)[O-])c([N+](=O)[O-])cc2Cl)n1	RXF 393	NO
CC(C)OCN/C(N)=N\C#N	RXF 393	NO
Cc1cc(O)cc2c1O[C@@]1(C)CCC3[C@@]4(C)CC[C@H](O)C(C)(C)C4CC[C@@]3(C)[C@H]1C2 (stereo not given in full)	RXF 393	NO
COc1ccc(/C=C(/c2ccccc2)c2c(C)cc(C)c(/C(=C\c3ccc(OC)cc3)c3ccccc3)c2/N=N/c2cc(C)cc(C)c2)cc1	RXF 393	NO
CCCCS(=N)(=O)CC[C@H](N)C(=O)O (stereo not given in full)	RXF 393	NO
CCCCCCCCCCCCCCCCSCC(COC)COP(=O)([O-])OCC[N+](C)(C)C (stereo not given)	RXF 393	NO
COc1cc2c(cc1OCCCC(=O)Nc1cc(C(=O)NCCCN(C)C)n(C)n1)N=CC1CCCN1C2=O (stereo not given)	RXF 393	NO
CSc1ccccc1P(CCP(c1ccccc1SC)c1ccccc1SC)c1ccccc1SC	RXF 393	NO
C[C@H]1C(=O)CC[C@]2(C)CCC(C(C)(C)O)CC12O (stereo not given in full)	RXF 393	NO
CC(=O)OCCOCBr	RXF 393	NO
c1ccc2cc(OCC3CO3)c(OCC3CO3)cc2c1 (stereo not given)	RXF 393	YES
O=C1CC[C@@H](S(=O)(=O)c2ccccc2)[C@@H](/C=C/c2ccccc2)O1	RXF 393	NO
O=C(Nc1cccc2ccccc12)c1ccccc1	RXF 393	NO
O=C(O)CN(CC(=O)O)c1ccccc1	RXF 393	NO
Cc1ccc(NC(=O)CC/C(CC(=O)C(C)(C)C)=N\NC(=O)C[n+]2ccccc2)cc1C	RXF 393	NO
COc1ccc2[nH]c(C(O)(Cc3cccnc3)Cc3cccnc3)cc2c1	RXF 393	NO
CC(C)c1cc(Cl)nc(Cl)n1	RXF 393	NO
O=C(Nc1ccccc1-c1nn(C(=S)Nc2ccccc2)c(=S)n(C(=S)Nc2ccccc2)c1=O)C(F)(F)F	RXF 393	NO
CCOC(=O)CC(=O)Sc1ccccc1	RXF 393	NO
CC1=C(OC2OC(CO)C(O)C(O)C2O)C(=O)C[C@H]2C1=CC[C@@H]1[C@@]2(C)C(=O)C[C@]2(C)[C@@H]([C@@](C)(O)C(=O)CCC(C)(C)O)[C@H](O)C[C@@]12C (stereo not given in full)	RXF 393	NO
CCC(C)(C)C1CCC2c3c([nH]c4ccccc34)C3C(=O)N(c4ccc(OC)cc4)C(=O)C3C2C1 (stereo not given)	RXF 393	NO
O=c1c(O)c(-c2cc(O)c(O)c(O)c2)oc2cc(O)cc(O)c12	RXF 393	NO
O=C1CCCC2=C1CC1=C(CCCC1=O)N2c1ccccc1C(=O)O	RXF 393	NO
O=C1[C@@H]2C3C=CC([C@H]4C(=O)N(CO)C(=O)[C@@H]34)[C@@H]2C(=O)N1CO	RXF 393	NO
CCOC(=O)C(C(CC(=O)OC)NC(=O)OCc1ccccc1)C1(C)OCCO1 (stereo not given)	RXF 393	NO
COP(=O)(OC)C(NC(=O)C(F)(F)F)(c1ccccc1)C(F)(F)F (stereo not given)	RXF 393	NO
NC1=NC(=O)[C@H](Cc2c[nH]c3ccccc23)N1C(=O)OCc1ccccc1	RXF 393	NO
CC(=O)N1CCN(C=S)CC1	RXF 393	NO
Cc1ccc(C)c(N2C(=O)C(=O)c3c(C)ccc(C)c32)c1	RXF 393	NO
C/C(=N\Nc1nc2ccccc2s1)c1ccc2ccccc2n1	RXF 393	NO
C=C1CC(C)(c2cccc(Nc3nc4ccccc4c4occc34)c2)OC1=O (stereo not given)	RXF 393	NO
COc1ccc(C(=O)Nc2ccccc2)cc1[N+](=O)[O-]	RXF 393	NO

* * *

- Tested on: SNB-75
- protocol-notes: NCI tumour cell line growth inhibition, 48 h
Calls of active or inactive are those of the source. Rule as the data show it: active = GI50 up to about 1.1 µM and inactive = higher.
Each entry below carries its reported GI50.

molecule	GI50
CNC(=O)CN(CC(N)=O)C(N)=O	77.3 µM (inactive)
CCCCCCCCCCCCCCCCCCNc1ccn(C2OC(COP(=O)(O)OC3CC(n4cc(F)c(=O)[nH]c4=O)OC3COP(=O)(O)OCC3OC(n4ccc(N)nc4=O)C(O)C3O)C(O)C2O)c(=O)n1 (stereo not given)	38.6 µM (inactive)
COc1cc(C=C2C(=O)NC(=O)NC2=O)cc(OC)c1OC	80.2 µM (inactive)
CCC/C(Cl)=N/OC(NC(=O)OCC)(C(F)(F)F)C(F)(F)F	82.4 µM (inactive)
CC(=O)c1c2c(cc3c1CCC3)CCC2	> 100 µM (inactive)

* * *

- Tested on: NCI-H460
- protocol-notes: NCI tumour cell line growth inhibition, 48 h
Active and inactive are the calls of the source. No stated cut-off is given here; in the data, active = GI50 up to about 1.1 µM and inactive = higher.
recorded-endpoint: GI50

molecule	result
COc1ccccc1NC(=S)Nc1cc(C)ccn1	> 100 µM (inactive)
Cc1c(-c2coc(-c3ccc([N+](=O)[O-])cc3)n2)c(=O)n(-c2ccccc2)n1C	> 100 µM (inactive)
COc1cc(/C=C/c2ccc(OC)c(OC)c2)oc(=O)c1	> 230 µM (inactive)
CCCCCCCC(CC(=O)NC(CO)C(=O)NC(CO)CC(C)C)OC(=O)CC(CCCCCCC)OC(=O)CC(CCCCCCC)OC1OC(C)C(O)C(OC2OC(C)C(O)C(OC(C)=O)C2O)C1O (stereo not given)	13.3 µM (inactive)
Cc1ccc(NC(Nc2ccc(C)cc2C)=C(C(Cl)=C(Cl)Cl)[N+](=O)[O-])c(C)c1	13.9 µM (inactive)
O=C(CC1(O)C(=O)Nc2ccccc21)c1ccncc1 (stereo not given)	> 100 µM (inactive)
COc1cc2c(cc1OCCCC(=O)Nc1cc(C(=O)NCCCN(C)C)n(C)n1)N=CC1CCCN1C2=O (stereo not given)	9.89 µM (inactive)
CCOC(=O)CC(=O)Sc1ccccc1	24.7 µM (inactive)
N#CS/C(C(Cl)=C(Cl)Cl)=C(/Cl)[N+](=O)[O-]	13.7 µM (inactive)
COc1ccccc1NC(=O)CC(=O)n1nc(C)c(/N=N/c2ccccc2C(=O)O)c1C	> 100 µM (inactive)

* * *

- Tested on: SK-MEL-5
- protocol-notes: NCI tumour cell line growth inhibition, 48 h
Calls of active or inactive are those of the source. Rule as the data show it: active = GI50 up to about 1.1 µM and inactive = higher.
Each entry below carries its reported GI50.
recorded-endpoint: GI50

                                    compound                result
 0          O=c1c(-c2ccccc2Cl)coc2cc(F)ccc12    27.3 µM (inactive)
 1    CC(C)=C/C(CC(O)(C(F)(F)F)C(F)(F)F)=N\O   > 100 µM (inactive)
 2  C=CCNC(=O)NCCCCC(NC(C)=O)C(=O)NCc1ccccc1 (centres undefined)   > 100 µM (inactive)
 3  O=C1c2cccc3cc([N+](=O)[O-])cc(c23)C(=O)N1c1ccc(OCCN2CCCC2)cc1    13.9 µM (inactive)
 4    COc1cc(C=C2C(=O)NC(=O)NC2=O)cc(OC)c1OC   > 100 µM (inactive)
 5  CC(O)C(O)C(O)C(/C=N\Nc1ccccc1)=N/Nc1ccccc1 (centres undefined)    15.1 µM (inactive)
 6               CCNC(=S)N/N=C/c1cc(OC)ccc1O   > 100 µM (inactive)
 7  CCCCN1CN2C(=O)C(C(=O)OCC)C(=O)c3sc4nc(SC)nc1c4c32 (centres undefined)    12.3 µM (inactive)
 8   [N-]=[N+]=Nc1ccc2c(c1)Sc1ccccc1N2CCCCCl    14.9 µM (inactive)
 9      Clc1ccc(SCCCCCCCCCCSc2ccc(Cl)cc2)cc1  > 55.1 µM (inactive)
10  Cc1c(-c2coc(-c3ccc([N+](=O)[O-])cc3)n2)c(=O)n(-c2ccccc2)n1C   > 100 µM (inactive)
11  CC(C)NC(=O)OCc1c(CO)c2c(n1C)-c1ccccc1CC2    27.2 µM (inactive)
12  CC1=NN=C(N)N/C1=C\C(Sc1ccc(Cl)cc1)c1ccc(Cl)cc1Cl (centres undefined)    14.8 µM (inactive)
13  CC(=O)N1N=C(c2ccc3ccccc3c2O)CC1C(=O)c1ccco1 (centres undefined)      25 µM (inactive)
14                       N=C(N)NNC(=O)C(=O)O   > 100 µM (inactive)
15  CC(=O)OCC1OC(n2c(Br)nc3c2c(=O)n(C)c(=O)n3C)C(OC(C)=O)C1OC(C)=O (centres undefined)    31.9 µM (inactive)
16           Cn1c2ccccc2c2c(=S)c3ccccc3ccc21    44.6 µM (inactive)
17      COc1ccc(CN/C=N/C(C#N)=C(\N)C#N)cc1OC   > 100 µM (inactive)
18  COP(=O)(OC)C(NC(=O)C(F)(F)F)(c1ccccc1)C(F)(F)F (centres undefined)   > 100 µM (inactive)
19  CC(C)(O)C(O)COc1c2c(cc3oc(=O)ccc13)OCO2 (centres undefined)   > 100 µM (inactive)
20  NC1=NC(=O)[C@H](Cc2c[nH]c3ccccc23)N1C(=O)OCc1ccccc1    40.3 µM (inactive)
21                             CC(=O)OCCOCBr   > 100 µM (inactive)
22       CCN(CC)CCn1nc(N)c2nc3cc(Cl)ccc3nc21    26.1 µM (inactive)
23                   CCOC(=O)CC(=O)Sc1ccccc1    17.3 µM (inactive)
